- TEST SYSTEM: T1, human GIP receptor (human) (UniProt P48546)
- T1 sequence (looked up): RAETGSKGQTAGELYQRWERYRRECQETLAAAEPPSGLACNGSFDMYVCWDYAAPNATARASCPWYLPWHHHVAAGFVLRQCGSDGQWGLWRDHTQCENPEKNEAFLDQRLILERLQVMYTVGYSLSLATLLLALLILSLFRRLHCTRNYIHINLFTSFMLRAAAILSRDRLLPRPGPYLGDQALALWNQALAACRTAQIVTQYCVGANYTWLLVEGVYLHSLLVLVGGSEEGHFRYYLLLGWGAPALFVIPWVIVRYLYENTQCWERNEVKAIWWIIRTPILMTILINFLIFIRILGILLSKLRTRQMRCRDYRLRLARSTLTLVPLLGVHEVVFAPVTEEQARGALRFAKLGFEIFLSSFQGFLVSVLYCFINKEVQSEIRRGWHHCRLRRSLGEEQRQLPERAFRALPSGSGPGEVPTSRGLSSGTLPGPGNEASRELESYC
- PROTOCOL TEXT: cell-based or functional assay
Non-standard residues stand in square brackets, D forms with d. No end group written: not given here. αMeL = CC(C)C[C@](C)(N)C(=O)O; Aib = CC(C)(N)C(=O)O
# maps each entry to its log10 cAMP Rel EC50 (1% HSA)
ASSAY METRIC: log10 cAMP Rel EC50 (1% HSA) (log10 of the value in nM)

- BINDER: "YXQGTXTSDXXIXLDXXAQXEFIEXLIEGGPSSGAPPPSGSE (synthetic construct; SITE 2: note = 2-Aminoisobutyric Acid; SITE 6: note = alpha-methyl-2-fluoro-L-phenylalanine; SITE 10: note = 3-(4-Pyridyl)-L-alanine; SITE 11: note = alpha-methyl-L-serine; SITE 13: note = alpha-methyl-leucine; SITE 16: note = L-ornithine; SITE 17: note = Ornithine is chemically) [Example 1212]"
  log10 cAMP Rel EC50 (1% HSA): -0.21
- BINDER: "YXQGTXTSDXSIXLDKKAQXXFIEYLTEGGPSSGEPPPEGSEE (synthetic construct; SITE 2: note = 2-Aminoisobutyric Acid; SITE 6: note = alpha-methyl-2-fluoro-L-phenylalanine; SITE 10: note = 3-(4-Pyridyl)-L-alanine; SITE 13: note = alpha-methyl-leucine; SITE 17: note = Lysine is chemically modified through conjugation of the epsilon-amino group of the Lysine) [Example 652]"
  log10 cAMP Rel EC50 (1% HSA): 0.28
- BINDER: "YXQGTFTSDYSKXLDKKAQXAFVQWLLEGGPSSGEPPPSEG (not fully specified; Aib, alpha-methyl-Leu, acylated Lys, C-terminal amide; synthetic construct; SITE 2: note = 2-Aminoisobutyric Acid; SITE 13: note = alpha-methyl-leucine; SITE 17: note = Lysine is chemically modified through conjugation of the epsilon-amino group of the Lysine side chain with (2-[2-(2-Amino-ethoxy)-ethoxy]-acetyl)-(gamma-Glu)-CO-(CH2) 18-CO2H; SITE 20: n) [Example 343]"
  log10 cAMP Rel EC50 (1% HSA): 1.22
- BINDER: "YXQGTFTSDXSQXLDKKAQXAFIEYLLEAGPSSGAPPPSGT (synthetic construct; SITE 2: note = 2-Aminoisobutyric Acid; SITE 10: note = 3-(4-Pyridyl)-L-alanine; SITE 13: note = alpha-methyl-leucine; SITE 17: note = Lysine is chemically modified through conjugation of the epsilon-amino group of the Lysine side chain with (2-[2-(2-Amino-ethoxy)-ethoxy]-acetyl)) [Example 823]"
  log10 cAMP Rel EC50 (1% HSA): 1.41
- BINDER: "YXQGTXTSDXXIXLDXKAQXXFIEXLQEGGPSSGEPPPEGTE (synthetic construct; SITE 2: note = 2-Aminoisobutyric Acid; SITE 6: note = alpha-methyl-2-fluoro-L-phenylalanine; SITE 10: note = 3-(4-Pyridyl)-L-alanine; SITE 11: note = alpha-methyl-L-serine; SITE 13: note = alpha-methyl-leucine; SITE 16: note = L-ornithine; SITE 17: note = Lysine is chemically mo) [Example 503]"
  log10 cAMP Rel EC50 (1% HSA): 0.31
- BINDER: "YXQGTFTSDFSXXLDKKAQXAFIEYLLAGGPSSGAPPPEGSEE (Aib, Orn, αMeL; acylated Lys; C-terminal amide; synthetic construct; SITE 2: note = 2-Aminoisobutyric Acid; SITE 12: note = L-ornithine; SITE 13: note = alpha-methyl-leucine; SITE 17: note = Lysine is chemically modified through conjugation of the epsilon-amino group of the Lysine side chain with (gamma-Glu)2-CO-(CH2)16-CO2H; SITE 20: note = 2-Am) [Example 1051]"
  log10 cAMP Rel EC50 (1% HSA): 1.51
- BINDER: "YXQGTFTSDXSQXLDKKAQXAFIEYLIAGGPSSGAPPPSGEEE (acylated Lys, C-terminal amide, non-natural residues; synthetic construct; SITE 2: note = 2-Aminoisobutyric Acid; SITE 10: note = 3-(4-Pyridyl)-L-alanine; SITE 13: note = alpha-methyl-leucine; SITE 17: note = Lysine is chemically modified through conjugation of the epsilon-amino group of the Lysine side chain with (Glu)2-(gamma-Glu)-CO-(CH2)16-CO2H; SI) [Example 1090]"
  log10 cAMP Rel EC50 (1% HSA): 1.44
- BINDER: "YXQGTFTSDXSQXLDXKAQXQFIEXLIAXGPSSGEPPPSGSEE (non-natural residues; lysine acylated AEEA-γGlu-C18 diacid; C-terminal amide; synthetic construct; SITE 2: note = 2-Aminoisobutyric Acid; SITE 10: note = 3-(4-Pyridyl)-L-alanine; SITE 13: note = alpha-methyl-leucine; SITE 16: note = L-ornithine; SITE 17: note = Lysine is chemically modified through conjugation of the epsilon-amino group of the Lysine side chain with (2-[2-(2-) [Example 1100]"
  log10 cAMP Rel EC50 (1% HSA): 0.96
- BINDER: "YXQGTXTSDXXIXLDXKAQXXFIEXLQEGGPSSGEPPPEGTEE (acyl linker with epsilon-Lys; synthetic construct; SITE 2: note = 2-Aminoisobutyric Acid; SITE 6: note = alpha-methyl-2-fluoro-L-phenylalanine; SITE 10: note = 3-(4-Pyridyl)-L-alanine; SITE 11: note = alpha-methyl-L-serine; SITE 13: note = alpha-methyl-leucine; SITE 16: note = L-ornithine; SITE 17: note = Lysine is chemically mo) [Example 656]"
  log10 cAMP Rel EC50 (1% HSA): 0.85
- BINDER: "Y[Aib]QGTFTSDYSK[αMeL]LDKKAQQAFIEYLIAGGPSSGEPPPSGD-NH2 (not fully specified (residue 17)) [Example 337]"
  log10 cAMP Rel EC50 (1% HSA): 2.00
- BINDER: "HXQGTXTSDYSILLDKKAAXAFIEYLIEAGPSSGEPPPSEG (not fully specified; non-natural residues, acylated Lys, C-terminal amide; synthetic construct; SITE 2: note = 2-Aminoisobutyric Acid; SITE 6: note = alpha-methyl-2-fluoro-L-phenylalanine; SITE 17: note = Lysine is chemically modified through conjugation of the epsilon-amino group of the Lysine side chain with (2-[2-(2-Amino-ethoxy)-ethoxy]-acetyl)-(gamma-Glu)-CO-(CH2) 18-) [Example 298]"
  log10 cAMP Rel EC50 (1% HSA): 1.62
- BINDER: "YXQGTFTSDFSKXLDKKAQXAFIEYLIEXSPSSGAPPPSGS (synthetic construct; SITE 2: note = 2-Aminoisobutyric Acid; SITE 13: note = alpha-methyl-leucine; SITE 17: note = Lysine is chemically modified through conjugation of the epsilon-amino group of the Lysine side chain with (2-[2-(2-Amino-ethoxy)-ethoxy]-acetyl)-(gamma-Glu)-CO-(CH2) 16-CO2H; SITE 20: n) [Example 805]"
  log10 cAMP Rel EC50 (1% HSA): 1.11
